src = paper PMC6449043

target: ndSQR (sulfide quinone oxidoreductase in nanodiscs) (Homo sapiens, UniProt Q9Y6N5); test: spectral titration of charge-transfer complex at […] nm
Sequence (Q9Y6N5 42-450): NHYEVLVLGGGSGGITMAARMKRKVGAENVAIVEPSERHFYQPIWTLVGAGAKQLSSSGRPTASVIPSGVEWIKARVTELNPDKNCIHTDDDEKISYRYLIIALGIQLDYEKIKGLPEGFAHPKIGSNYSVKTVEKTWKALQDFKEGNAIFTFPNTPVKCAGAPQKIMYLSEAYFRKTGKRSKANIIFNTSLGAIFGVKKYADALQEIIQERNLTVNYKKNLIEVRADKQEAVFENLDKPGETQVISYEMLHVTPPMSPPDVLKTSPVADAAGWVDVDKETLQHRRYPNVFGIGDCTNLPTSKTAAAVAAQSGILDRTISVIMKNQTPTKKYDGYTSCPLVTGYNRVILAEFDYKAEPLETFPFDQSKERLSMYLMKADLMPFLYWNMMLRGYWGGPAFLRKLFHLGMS
QUANTITY NAME: Kd (µM)
All answers are understood in µM, so give the number only.

// Kd lookup, compound = `CS` , result: 38
